# Test system: Splenocytes
# EXPERIMENT_DESCRIPTION: Splenic cell proliferation assay (anti-IgM stimulated)
# Format: cell-based
# EXPERIMENTAL_CONTEXT: Splenocyte; CD1 mouse splenocytes, 1 h pre-treatment, 2.5 ug/ml anti-IgM F(ab')2 for 72 h, Cell Titer-Glo; read-out: EC50 (inhibition of splenic cell proliferation)
ASSAY_READOUT: EC50 (nM)

INSERT INTO results (compound, assayed_system, endpoint_value) VALUES
  ('CC#CC(=O)N1CC[C@@H](n2nc(-c3ccc(Oc4cc(F)cc(OCc5cnc(C)nc5)c4)cc3)c3c(N)ncnc32)C1 [Compound 17]', 'Splenocytes', 6.9),
  ('C=C(F)C(=O)N1CCC[C@@H]1Cn1nc(-c2ccc(Oc3cc(F)cc(OCc4cnc(C)nc4)c3)cc2)c2c(N)ncnc21 [Compound 6]', 'Splenocytes', 11.5),
  ('C=CS(=O)(=O)N1CC[C@@H](n2nc(-c3ccc(Oc4cc(F)cc(OCc5cnc(C)nc5)c4)cc3)c3c(N)ncnc32)C1 [Compound 19]', 'Splenocytes', 13.4),
  ('C=CC(=O)N[C@H]1C[C@@H](n2nc(-c3ccc(Oc4cc(F)cc(OCc5cnc(C)nc5)c4)cc3)c3c(N)ncnc32)C1 [Compound 27]', 'Splenocytes', 0.8),
  ('C#CC(=O)N1CCC[C@@H](n2nc(-c3ccc(Oc4cc(F)cc(OCc5cnc(C)nc5)c4)cc3)c3c(N)ncnc32)C1 [Compound 10]', 'Splenocytes', 9.8),
  ('Cc1ncc(COc2cc(F)cc(Oc3ccc(-c4nn(C[C@H]5CCCN5C(=O)C5=CCC5)c5ncnc(N)c45)cc3)c2)cn1 [Compound 15]', 'Splenocytes', 8.7),
  ('CC#CC(=O)N(C)[C@H]1C[C@@H](n2nc(-c3ccc(Oc4cc(F)cc(OCc5cnc(C)nc5)c4)cc3)c3c(N)ncnc32)C1 [Compound 32]', 'Splenocytes', 1.5),
  ('CC#CC(=O)N1CCC[C@@H]1Cn1nc(-c2ccc(Oc3cc(F)cc(OCc4cnc(C)nc4)c3)cc2)c2c(N)ncnc21 [Compound 5]', 'Splenocytes', 7.8),
  ('C=CC(=O)N1CC2(CC(n3nc(-c4ccc(Oc5cc(F)cc(OCc6cnc(C)nc6)c5)cc4)c4c(N)ncnc43)C2)C1 [Compound 34]', 'Splenocytes', 1.5);

###

Observed IC50 values for human BTK kinase (hBTK) (Homo sapiens) are listed in what follows.
ASSAY_READOUT: IC50 (nM)

INSERT INTO assay_data (line_notation, endpoint_value) VALUES
  ('C=CC(=O)N1CC(Cn2nc(-c3ccc(Oc4cc(F)cc(OCc5cnc(C)nc5)c4)cc3)c3c(N)ncnc32)C1', 9),
  ('C#CC(=O)N1CCC[C@@H]1Cn1nc(-c2ccc(Oc3cc(F)cc(OCc4cnc(C)nc4)c3)cc2)c2c(N)ncnc21', 35),
  ('C=CC(=O)N1CCC[C@@H](n2nc(-c3ccc(Oc4cc(F)cc(OCc5cnc(C)nc5)c4)cc3)c3c(N)ncnc32)C1', 6),
  ('C=C(F)C(=O)N1CCC[C@@H]1Cn1nc(-c2ccc(Oc3cc(F)cc(OCc4cnc(C)nc4)c3)cc2)c2c(N)ncnc21', 55),
  ('CC#CC(=O)N1CCC[C@@H](n2nc(-c3ccc(Oc4cc(F)cc(OCc5cnc(C)nc5)c4)cc3)c3c(N)ncnc32)C1', 10),
  ('C=CC(=O)N[C@H]1CC[C@@H](n2nc(-c3ccc(Oc4cc(F)cc(OCc5cnc(C)nc5)c4)cc3)c3c(N)ncnc32)CC1', 8),
  ('C=CC(=O)N1CCC[C@@H]1Cn1nc(-c2ccc(Oc3cc(F)cc(OCc4cnc(C)nc4)c3)cc2)c2c(N)ncnc21', 25),
  ('C=CS(=O)(=O)N1CC[C@@H](n2nc(-c3ccc(Oc4cc(F)cc(OCc5cnc(C)nc5)c4)cc3)c3c(N)ncnc32)C1', 7),
  ('C=CS(=O)(=O)N1CCC[C@@H](n2nc(-c3ccc(Oc4cc(F)cc(OCc5cnc(C)nc5)c4)cc3)c3c(N)ncnc32)C1', 13),
  ('C=CC(=O)N(C)[C@H]1C[C@@H](n2nc(-c3ccc(Oc4cc(F)cc(OCc5cnc(C)nc5)c4)cc3)c3c(N)ncnc32)C1', 10),
  ('C=C(F)C(=O)N1CC[C@@H](n2nc(-c3ccc(Oc4cc(F)cc(OCc5cnc(C)nc5)c4)cc3)c3c(N)ncnc32)C1', 14),
  ('C=C(C)C(=O)N1CCC[C@@H](n2nc(-c3ccc(Oc4cc(F)cc(OCc5cnc(C)nc5)c4)cc3)c3c(N)ncnc32)C1', 16);

Entry source: patent US20180179210A1
